Target: T1, GAL4 activation domain fusion (ACT) to HAB1 (UniProt Q9CAJ0 23-511, limits assumed)
T1 construct: pACT-HAB1 fusion in yeast reporter strains; also called pACT-HAB1
T1 sequence (looked up): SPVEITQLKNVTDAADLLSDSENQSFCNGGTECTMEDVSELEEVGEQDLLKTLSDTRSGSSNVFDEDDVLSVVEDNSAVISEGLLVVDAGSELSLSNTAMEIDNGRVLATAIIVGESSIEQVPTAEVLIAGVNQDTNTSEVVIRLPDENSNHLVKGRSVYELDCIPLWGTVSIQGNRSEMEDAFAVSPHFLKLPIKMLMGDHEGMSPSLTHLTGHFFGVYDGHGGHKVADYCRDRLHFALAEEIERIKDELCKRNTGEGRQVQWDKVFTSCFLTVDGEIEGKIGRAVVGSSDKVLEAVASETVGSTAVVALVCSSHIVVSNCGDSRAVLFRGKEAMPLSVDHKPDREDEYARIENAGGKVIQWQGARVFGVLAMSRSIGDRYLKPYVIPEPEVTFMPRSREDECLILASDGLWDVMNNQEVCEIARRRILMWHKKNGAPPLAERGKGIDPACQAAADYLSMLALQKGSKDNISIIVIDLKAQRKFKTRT
Assay: yeast two-hybrid, X-gal; lowest mandipropamid concentration giving signal
recorded endpoint: Threshold (µM)
Give just the numeric value; µM need not be written.

PYR1^K59R,F108A,S122G,L87A (receptor, pBD-PYR1 fusion in yeast) MPSELTPEERSELKNSIAEFHTYQLDPGSCSSLHAQRIHAPPELVWSIVRRFDKPQTYRHFIKSCSVEQNFEMRVGCTRDVIVISGAPANTSTERLDILDDERRVTGASIIGGEHRLTNYKGVTTVHRFEKENRIWTVVLESYVVDMPEGNSEDDTRMFADTVVKLNLQKLATVAEAMARNSGDGSGSQVT : 0.25

I'd like to know its Threshold. The binder in question is PYR1^K59R,F108Q (receptor, not shown: small tags and cut ends, pBD-PYR1 fusion in yeast) MPSELTPEERSELKNSIAEFHTYQLDPGSCSSLHAQRIHAPPELVWSIVRRFDKPQTYRHFIKSCSVEQNFEMRVGCTRDVIVISGLPANTSTERLDILDDERRVTGQSIIGGEHRLTNYKSVTTVHRFEKENRIWTVVLESYVVDMPEGNSEDDTRMFADTVVKLNLQKLATVAEAMARNSGDGSGSQVT
100

I'd like to know its Threshold. The binder in question is PYR1^K59R,F159C (receptor, not shown: small tags and cut ends, pBD-PYR1 fusion in yeast) MPSELTPEERSELKNSIAEFHTYQLDPGSCSSLHAQRIHAPPELVWSIVRRFDKPQTYRHFIKSCSVEQNFEMRVGCTRDVIVISGLPANTSTERLDILDDERRVTGFSIIGGEHRLTNYKSVTTVHRFEKENRIWTVVLESYVVDMPEGNSEDDTRMCADTVVKLNLQKLATVAEAMARNSGDGSGSQVT
100

I'd like to know its Threshold. The binder in question is PYR1^K59R,F159M (receptor, not shown: small tags and cut ends, pBD-PYR1 fusion in yeast) MPSELTPEERSELKNSIAEFHTYQLDPGSCSSLHAQRIHAPPELVWSIVRRFDKPQTYRHFIKSCSVEQNFEMRVGCTRDVIVISGLPANTSTERLDILDDERRVTGFSIIGGEHRLTNYKSVTTVHRFEKENRIWTVVLESYVVDMPEGNSEDDTRMMADTVVKLNLQKLATVAEAMARNSGDGSGSQVT
100

I'd like to know its Threshold. The binder in question is PYR1^K59R,F159T (receptor, not shown: small tags and cut ends, pBD-PYR1 fusion in yeast) MPSELTPEERSELKNSIAEFHTYQLDPGSCSSLHAQRIHAPPELVWSIVRRFDKPQTYRHFIKSCSVEQNFEMRVGCTRDVIVISGLPANTSTERLDILDDERRVTGFSIIGGEHRLTNYKSVTTVHRFEKENRIWTVVLESYVVDMPEGNSEDDTRMTADTVVKLNLQKLATVAEAMARNSGDGSGSQVT
100

I'd like to know its Threshold. The binder in question is PYR1^K59R,F108A,S122G,A160V (receptor, pBD-PYR1 fusion in yeast) MPSELTPEERSELKNSIAEFHTYQLDPGSCSSLHAQRIHAPPELVWSIVRRFDKPQTYRHFIKSCSVEQNFEMRVGCTRDVIVISGLPANTSTERLDILDDERRVTGASIIGGEHRLTNYKGVTTVHRFEKENRIWTVVLESYVVDMPEGNSEDDTRMFVDTVVKLNLQKLATVAEAMARNSGDGSGSQVT
0.25
